Molecular target: Cytochrome P450 1A2 (Homo sapiens)
Assay: Cytochrome P450 Family 1 Subfamily A Member 2 (CYP1A2) small molecule antagonists: luciferase reporter qHTS assay (AID 1671199); further: nearly all actives have a fitted effect of over 50% in size
Conditions: P450-Glo CYP1A2 enzyme, luciferin luminescence, 1 h; series mostly up to 115 µM
Inconclusive results are not listed. Active and inactive are the calls of the source. The call rests on the fitted dose curve; in most records, active means well fitted inhibition curve with a large enough effect in the repeat runs; inconclusive means weak or mixed curves; inactive means no such curve, though single readings can be large or run the other way. Positions of bridges follow the written chain, without caps; N, C: chain ends. Non-standard residues stand in square brackets, D forms with d. Residues, ends and D or L forms follow the SMILES beside them. hArg = N=C(N)NCCCC[C@H](N)C(=O)O; Mpa = O=C(O)CCS
Your reply should match one of these outcome classes. TRUE (active), FALSE (inactive)

Prompt: Please let me know the test result on file for CC(=O)OC1CCCCC1C(C)(C)C (configuration not stated) .
Completion: FALSE

Prompt: Identify the outcome logged in this assay for the compound shown: NCCOCCN
Completion: TRUE

Prompt: Dear colleague, could you share the recorded outcome for CC(C)[C@H]1CC[C@H](C)C[C@@H]1O when you have a moment?
Completion: FALSE

Prompt: Hi, do you know how CCCCCCCCCCCCCCCCCCOCCO came out in this test?
Completion: TRUE

Prompt: // outcome(item) with item = CN(C)CCCO[C@@H]1[C@H]2OC(C)(C)O[C@H]2O[C@@H]1C(O)CO (some centres not stated)
Completion: FALSE

Prompt: Would you mind telling me which call this test gave COC(=O)CCCCC(=O)O ?
Completion: FALSE

Prompt: # fetch the recorded call for CCNC(=O)NCc1cccc(Cl)c1 here
Completion: FALSE

Prompt: Given NC(=O)[C@@H]1CSSCCC(=O)N[C@@H](CCCCN=C(N)N)C(=O)NCC(=O)N[C@@H](CC(=O)O)C(=O)N[C@@H](Cc2c[nH]c3ccccc23)C(=O)N2CCC[C@H]2C(=O)N1 ([Mpa][hArg]GDWPC-NH2; disulfide 1-7) , state the outcome it received in this test.
Completion: FALSE

Prompt: Per the assay record, what outcome was assigned to O=C1OCCO1 ?
Completion: TRUE

Prompt: Name the outcome recorded for C=CC(=O)OCC1CCCO1 (configuration not stated) in the assay.
Completion: FALSE

Prompt: Test call for this compound, please: CN(C)CCOC(=O)C(c1ccccc1)C1(O)CCCC1 (configuration not stated)
Completion: FALSE

Prompt: Recorded test outcome, item CCc1occc(=O)c1O
Completion: FALSE
